Where these numbers come from: patent US7560458B2

- measured target: GSK3β (Homo sapiens)
- assay notes: GSK3beta assay (SPA, biotinylated phosphorylated CREB peptide, ATP-P33)
- Assay type: biochemical
- test settings: −log IC50 (M); given as ranges (>8; 7-8; <7); read-out: pIC50 (GSK3beta) (converted)
- Method: GSK3beta assays were performed at room temperature in a 100 μl reaction volume of 25 mM Tris (ph 7.4) containing 10 mM MgCl2.6H2O 1 mM DTT, 0.1 mg/ml BSA, 5% glyceol and containing 5.7 ng/μl GSK3β, 5 μM biotinylated phosphorylated CREB peptide, 1 μM APT, 0.85 μCi/ml ATP-P^33 and a suitable amount of a test compound of formula (I). After one hour, the reaction was terminated by adding 70 μl of Stop mix (0.1 mM APT, 5 mg/ml streptavidin coated PVT SPA bead pH 11.0). […]
endpoint label: IC50

N#Cc1ccc(Nc2ncc3nnn(-c4cccc(CNC(=O)C5CC5)c4)c3n2)cc1; 1e-08 to 1e-07 M
CNC(=O)c1cccc(Nc2ncc3nnn(-c4cccc(F)c4)c3n2)c1; < 1e-08 M
O=C(O)c1cc(Nc2ncc3nnn(-c4cccc(F)c4)c3n2)ccc1O; 1e-08 to 1e-07 M
NC(=O)c1ccc(Nc2ncc3nnn(-c4cccc(CNC(=O)C56CC7CC(CC(C7)C5)C6)c4)c3n2)cc1; 1e-08 to 1e-07 M

Q. Consider the compound O=C(O)Cc1ccc(Nc2ncc3nnn(-c4cccc(CNC(=O)C56CC7CC(CC(C7)C5)C6)c4)c3n2)cc1 tested on GSK3β (Homo sapiens); state its IC50.
A. 1e-08 to 1e-07 M

Q. Consider the compound CS(=O)(=O)Nc1cccc(Nc2ncc3nnn(-c4cccc(CO)c4)c3n2)c1 tested on GSK3β (Homo sapiens); state its IC50.
A. < 1e-08 M

Q. Consider the compound O=C(NCCO)c1cccc(Nc2ncc3nnn(-c4cccc(F)c4)c3n2)c1 tested on GSK3β (Homo sapiens); state its IC50.
A. < 1e-08 M

Q. Consider the compound Oc1cccc(Nc2ncc3nnn(-c4cccc(F)c4)c3n2)c1 tested on GSK3β (Homo sapiens); state its IC50.
A. 1e-08 M

Q. Consider the compound COCc1cccc(Nc2ncc3nnn(-c4cccc(CNC(=O)C5CC5)c4)c3n2)c1 tested on GSK3β (Homo sapiens); state its IC50.
A. < 1e-08 M

Q. Consider the compound CC(C)CC(=O)NCc1cccc(-n2nnc3cnc(Nc4ccc(CC(=O)O)cc4)nc32)c1 tested on GSK3β (Homo sapiens); state its IC50.
A. 1e-08 to 1e-07 M

Q. Consider the compound CC(=O)NCc1cccc(-n2nnc3cnc(Nc4cccc(C(C)=O)c4)nc32)c1 tested on GSK3β (Homo sapiens); state its IC50.
A. < 1e-08 M

Q. Consider the compound COCc1cccc(-n2nnc3cnc(Nc4cccc(NS(C)(=O)=O)c4)nc32)c1 tested on GSK3β (Homo sapiens); state its IC50.
A. < 1e-08 M

Q. Consider the compound O=C(O)c1ccc(Nc2ncc3nnn(-c4cccc(CNC(=O)C5CC5)c4)c3n2)cc1Cl tested on GSK3β (Homo sapiens); state its IC50.
A. < 1e-08 M

Q. Consider the compound NS(=O)(=O)c1ccc(Nc2ncc3nnn(-c4cccc(F)c4)c3n2)cc1 tested on GSK3β (Homo sapiens); state its IC50.
A. < 1e-08 M

Q. Consider the compound N#Cc1cccc(Nc2ncc3nnn(-c4cccc(CCO)c4)c3n2)c1 tested on GSK3β (Homo sapiens); state its IC50.
A. < 1e-08 M

Q. Consider the compound CNC(=O)c1ccc(Nc2ncc3nnn(-c4cccc(COCCOC)c4)c3n2)cc1 tested on GSK3β (Homo sapiens); state its IC50.
A. < 1e-08 M

Q. Consider the compound COc1ccc(Nc2ncc3nnn(-c4cccc(CNC(=O)C5CC5)c4)c3n2)cn1 tested on GSK3β (Homo sapiens); state its IC50.
A. 1e-08 to 1e-07 M

====

- measured target: GSK3β (Homo sapiens, UniProt P49841)
- Sequence (P49841 whole entry, species assumed): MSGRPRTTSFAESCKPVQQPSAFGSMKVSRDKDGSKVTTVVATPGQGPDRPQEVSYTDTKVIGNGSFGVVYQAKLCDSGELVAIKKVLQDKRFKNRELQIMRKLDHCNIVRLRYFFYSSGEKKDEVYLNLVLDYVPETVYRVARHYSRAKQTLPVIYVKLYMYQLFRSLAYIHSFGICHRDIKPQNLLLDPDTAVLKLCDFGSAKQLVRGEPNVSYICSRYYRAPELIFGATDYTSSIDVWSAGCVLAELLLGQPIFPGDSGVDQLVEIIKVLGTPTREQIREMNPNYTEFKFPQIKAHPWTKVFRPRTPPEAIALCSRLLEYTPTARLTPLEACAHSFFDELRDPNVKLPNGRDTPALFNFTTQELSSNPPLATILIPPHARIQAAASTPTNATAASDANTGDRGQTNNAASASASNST
- assay notes: GSK3beta assay (SPA, biotinylated phosphorylated CREB peptide, ATP-P33)
- Assay type: biochemical
- test settings: −log IC50 (M); given as ranges (>8; 7-8; <7); read-out: pIC50 (GSK3beta) (converted)
endpoint label: IC50

CS(=O)(=O)Nc1cccc(Nc2ncc3nnn(-c4cccc(CC(=O)O)c4)c3n2)c1; 1e-08 to 1e-07 M

Q. Item CNS(=O)(=O)c1cccc(Nc2ncc3nnn(-c4cccc(CNC(C)=O)c4)c3n2)c1 : provide IC50
A. < 1e-08 M

Q. Item COCCOc1cccc(-n2nnc3cnc(Nc4ccc(CCN)cc4)nc32)c1 : provide IC50
A. 1e-08 to 1e-07 M

Q. Item CN(C)C(=O)c1cccc(Nc2ncc3nnn(-c4cccc(F)c4)c3n2)c1 : provide IC50
A. < 1e-08 M

====

Structures can show the parent of a compound that is named as a salt.
Measured melting point, listed per entry for reference.

Take a look at these entries with their results.
CC(O)c1cccc(Nc2ncc3nnn(-c4cccc(F)c4)c3n2)c1 (centres unmarked); 150 to 154 °C
COCc1cccc(-n2nnc3cnc(Nc4cccc([S+](C)[O-])c4)nc32)c1 (centres unmarked); 142 to 146 °C
COc1cc(OC)cc(-n2nnc3cnc(Nc4cccc(C#N)c4)nc32)c1; 228 to 232 °C

Q. Item CCOC(=O)/C=C/c1cccc(Nc2ncc3nnn(-c4cccc(F)c4)c3n2)c1 : provide melting point
A. 214 to 218.1 °C

Q. Item Nc1cccc(Nc2ncc3nnn(-c4cccc(F)c4)c3n2)c1 (as salt: HCl) : provide melting point
A. 224 °C

Q. Item Fc1cccc(-n2nnc3cnc(Nc4cccc(Br)c4)nc32)c1 : provide melting point
A. 212 to 213 °C

Q. Item CC(=O)c1cccc(Nc2ncc3nnn(-c4cccc(F)c4)c3n2)c1 : provide melting point
A. 220 to 224 °C

====

- measured target: GSK3β (Homo sapiens, UniProt P49841)
- assay notes: GSK3beta assay (SPA, biotinylated phosphorylated CREB peptide, ATP-P33)
- Type: biochemical
- test settings: −log IC50 (M); given as ranges (>8; 7-8; <7); read-out: pIC50 (GSK3beta) (converted)
endpoint label: IC50

Take a look at these entries with their results.
COCCNC(=O)c1cccc(Nc2ncc3nnn(-c4cccc(F)c4)c3n2)c1 [Compound 90]; < 1e-08 M
CC(=O)Nc1cccc(Nc2ncc3nnn(-c4ccccc4)c3n2)c1 [Compound 59]; < 1e-08 M
CN(C)S(=O)(=O)c1cccc(Nc2ncc3nnn(-c4cccc(F)c4)c3n2)c1 [Compound 94]; < 1e-08 M
CS(=O)(=O)Nc1cccc(Nc2ncc3nnn(-c4cccc(CCO)c4)c3n2)c1 [Compound 256]; < 1e-08 M
COCc1cccc(-n2nnc3cnc(Nc4cccc(S(=O)(=O)NCCO)c4)nc32)c1 [Compound 142]; < 1e-08 M
CN(C)CCCOc1ccc(Nc2ncc3nnn(-c4cccc(F)c4)c3n2)cc1 [Compound 297]; 1e-08 to 1e-07 M
O=C(O)c1ccc(Nc2ncc3nnn(-c4cccc(CNC(=O)C5CC5)c4)c3n2)cc1 [Compound 206]; < 1e-08 M
COCC(=O)NCc1cccc(-n2nnc3cnc(Nc4ccc(NC(C)=O)c(C(=O)OC)c4)nc32)c1 [Compound 157]; < 1e-08 M
COCCOCc1cccc(-n2nnc3cnc(Nc4ccc(Cl)cc4)nc32)c1 [Compound 336]; < 1e-08 M
COc1ccc(Nc2ncc3nnn(-c4cccc(CCO)c4)c3n2)cn1 [Compound 173]; < 1e-08 M

Continue with the molecule presented below.
Q. Consider the molecule COc1cc(OC)cc(-n2nnc3cnc(Nc4cccc(C#N)c4)nc32)c1 [Compound 6] tested on GSK3β (Homo sapiens, UniProt P49841); state its IC50.
A. < 1e-08 M

====

Measured IC50, listed per entry for reference.
- measured target: GSK3β (Homo sapiens, UniProt P49841)
- assay notes: GSK3beta assay (SPA, biotinylated phosphorylated CREB peptide, ATP-P33)
- Format: biochemical
- test settings: −log IC50 (M); given as ranges (>8; 7-8; <7); read-out: pIC50 (GSK3beta) (converted)
- Description: GSK3beta assays were performed at room temperature in a 100 μl reaction volume of 25 mM Tris (ph 7.4) containing 10 mM MgCl2.6H2O 1 mM DTT, 0.1 mg/ml BSA, 5% glyceol and containing 5.7 ng/μl GSK3β, 5 μM biotinylated phosphorylated CREB peptide, 1 μM APT, 0.85 μCi/ml ATP-P^33 and a suitable amount of a test compound of formula (I). After one hour, the reaction was terminated by adding 70 μl of Stop mix (0.1 mM APT, 5 mg/ml streptavidin coated PVT SPA bead pH 11.0). […]

NC(=O)c1cccc(-n2nnc3cnc(Nc4ccc(C(=O)O)cc4)nc32)c1 [Compound 228]; < 1e-08 M
CNC(=O)c1ccc(Nc2ncc3nnn(-c4cccc(CC#N)c4)c3n2)cc1 [Compound 331]; 1e-08 to 1e-07 M
COCc1cccc(-n2nnc3cnc(Nc4cccc(C(=O)NCCNC(C)=O)c4)nc32)c1 [Compound 149]; 1e-08 to 1e-07 M
OCCc1ccc(-n2nnc3cnc(Nc4ccc(F)cc4)nc32)cc1 [Compound 291]; 1e-08 to 1e-07 M
CC(C)CC(=O)NCc1cccc(-n2nnc3cnc(Nc4ccc(S(N)(=O)=O)cc4)nc32)c1 [Compound 197]; < 1e-08 M
NS(=O)(=O)c1ccc(Nc2ncc3nnn(-c4ccccc4)c3n2)cc1 [Compound 37]; < 1e-08 M
CCOC(=O)/C=C/c1cccc(Nc2ncc3nnn(-c4cccc(F)c4)c3n2)c1 [Compound 9]; < 1e-08 M
NS(=O)(=O)c1ccc(Nc2ncc3nnn(-c4cccc(CNC(=O)C5CC5)c4)c3n2)cc1 [Compound 210]; < 1e-08 M

Q. Item CCOC(=O)NCc1cccc(-n2nnc3cnc(Nc4cccc(COC)c4)nc32)c1 [Compound 216] : provide IC50
A. < 1e-08 M
